Test system: CASSIA OBTUSIFOLIA, L.
Procedure details: Preemergence herbicidal evaluation, CASOB (Sicklepod)
Format: in vivo
Parameters: key: visual rating scale 0-9 vs control
Experimental parameters: Rate 0.125 kg/ha, rated four to five weeks after treatment
Quantity kind: CASOB
# respond with the number and nothing more

C=CCn1c(=O)n(C)c(=O)n(-c2cc(N3C(=O)C4=C(CCCC4)C3=O)c(F)cc2Cl)c1=O; 0.0
C=CCn1c(=O)[nH]c(=O)n(-c2cc(N3C(=O)C4=C(CCCC4)C3=O)c(F)cc2Cl)c1=O; 0.0
CC(C)OC(=O)Cn1c(=O)n(C)c(=O)n(-c2cc(N=c3sc(=O)n4n3CCCC4)c(F)cc2Cl)c1=O; 5.0
C#CCn1c(=O)n(C)c(=O)n(-c2cc(N3C(=O)C4=C(CCCC4)C3=O)c(F)cc2Cl)c1=O; 0.0

# evaluate next
Prompt: Reported CASOB for CC(C)OC(=O)Cn1c(=O)n(C)c(=O)n(-c2cc(N3C(=O)C4C[S+]([O-])CCN4C3=O)c(F)cc2Cl)c1=O (centres unmarked) : what is it?
Completion: 2.0

* * *

Entries annotated with measured ZEAMX
Test system: ZEA MAYS L.
Procedure details: Preemergence herbicidal evaluation, ZEAMX (Corn, Field)
Assay type: in vivo
Parameters: key: visual rating scale 0-9 vs control
Experimental parameters: Rate 0.500 kg/ha, rated four to five weeks after treatment
# respond with the number and nothing more

CC(C)OC(=O)Cn1c(=O)n(C)c(=O)n(-c2cc(N3C(=O)C4C[S+]([O-])CCN4C3=O)c(F)cc2Cl)c1=O (centres unmarked) [Compound 14]; 1.0
C=CCn1c(=O)n(C)c(=O)n(-c2cc(N3C(=O)C4=C(CCCC4)C3=O)c(F)cc2Cl)c1=O [Compound 17]; 3.0
CC(C)OC(=O)Cn1c(=O)n(C)c(=O)n(-c2cc(N=c3sc(=O)n4n3CCCC4)c(F)cc2Cl)c1=O [Compound 13]; 1.0
C#CCn1c(=O)n(C)c(=O)n(-c2cc(N3C(=O)C4=C(CCCC4)C3=O)c(F)cc2Cl)c1=O [Compound 16]; 2.0

# evaluate next
Prompt: Reported ZEAMX for C=CCn1c(=O)[nH]c(=O)n(-c2cc(N3C(=O)C4=C(CCCC4)C3=O)c(F)cc2Cl)c1=O [Compound 18] : what is it?
Completion: 0.0

* * *

Test system: ECHINOCHLOA CRUS-GALLI, (L) BEAU
Procedure details: Preemergence herbicidal evaluation, ECHCG (Barnyardgrass)
Assay type: in vivo
Set-up: key: visual rating scale 0-9 vs control
Experimental parameters: Rate 0.250 kg/ha, rated four to five weeks after treatment
Quantity kind: ECHCG

Past entries and their recorded results:
C=CCn1c(=O)n(C)c(=O)n(-c2cc(N3C(=O)C4=C(CCCC4)C3=O)c(F)cc2Cl)c1=O; 0.0
CC(C)OC(=O)Cn1c(=O)n(C)c(=O)n(-c2cc(N3C(=O)C4C[S+]([O-])CCN4C3=O)c(F)cc2Cl)c1=O (centres unmarked); 0.0
C#CCn1c(=O)n(C)c(=O)n(-c2cc(N3C(=O)C4=C(CCCC4)C3=O)c(F)cc2Cl)c1=O; 0.0
C=CCn1c(=O)[nH]c(=O)n(-c2cc(N3C(=O)C4=C(CCCC4)C3=O)c(F)cc2Cl)c1=O; 0.0

# evaluate next
Prompt: Reported ECHCG for "CC(C)OC(=O)Cn1c(=O)n(C)c(=O)n(-c2cc(N=c3sc(=O)n4n3CCCC4)c(F)cc2Cl)c1=O" : what is it?
Completion: 0.0

* * *

System: ORYZA SATIVA, L. TEBONNET
Procedure details: Postemergence herbicidal evaluation, ORYSAT (Rice, Tebonnet)
Format: in vivo
Experimental parameters: 0.500 kg/ha, rated four to five weeks after treatment
Quantity kind: Herbicide rating (0-9) ORYSAT
# respond with the number and nothing more

Past entries and their recorded results:
CCOC(=O)Cn1c(=O)n(CC(=O)OC(C)(C)C)c(=O)n(-c2ccc(F)c(N3C(=O)C4=C(CCCC4)C3=O)c2)c1=O; 1.5
C#CCn1c(=O)n(CC=C)c(=O)n(-c2cc(N3C(=O)C4=C(CCCC4)C3=O)c(F)cc2Cl)c1=O; 2.0
C=CCn1c(=O)n(CC=C)c(=O)n(-c2cc(N3C(=O)C4=C(CCCC4)C3=O)c(F)cc2Cl)c1=O; 2.0

# evaluate next
Prompt: Provide the documented Herbicide rating (0-9) ORYSAT with ORYZA SATIVA, L. TEBONNET as the system for "CC(C)OC(=O)Cn1c(=O)n(C)c(=O)n(-c2cc(N3C(=O)C4=C(CCCC4)C3=O)c(F)cc2Cl)c1=O"
Completion: 4.0

* * *

Test system: ORYZA SATIVA, L. TEBONNET
Procedure details: Preemergence herbicidal evaluation, ORYSAT (Rice, Tebonnet)
Type: in vivo
Experimental parameters: 0.500 kg/ha, rated four to five weeks after treatment
Entries annotated with measured Herbicide rating (0-9) ORYSAT
# respond with the number and nothing more

Past entries and their recorded results:
Cn1c(=O)n(CC(=O)O)c(=O)n(-c2cc(N3C(=O)C4=C(CCCC4)C3=O)c(F)cc2Cl)c1=O; 0.0
COC(=O)Cn1c(=O)n(C)c(=O)n(-c2cc(N3C(=O)C4=C(CCCC4)C3=O)c(F)cc2Cl)c1=O; 0.0

Prompt: Reported Herbicide rating (0-9) ORYSAT for "COC(=O)Cn1c(=O)n(C)c(=O)n(-c2cc(N3C(=O)C4=C(CCCC4)C3=O)c(Cl)cc2Cl)c1=O" : what is it?
Completion: 4.0

Prompt: Now give it for "COC(=O)Cn1c(=O)n(C)c(=O)n(-c2cc(N3C(=O)C4=C(CCCC4)C3=O)ccc2F)c1=O" too.
Completion: 0.0

* * *

System: CASSIA OBTUSIFOLIA, L.
Procedure details: Preemergence herbicidal evaluation, CASOB (Sicklepod)
Assay type: in vivo
Experimental parameters: 0.250 kg/ha, rated four to five weeks after treatment
Entries annotated with measured Herbicide rating (0-9) CASOB
# respond with the number and nothing more

Prompt: Reported Herbicide rating (0-9) CASOB for "CCOC(=O)Cn1c(=O)n(CC(=O)OC(C)(C)C)c(=O)n(-c2ccc(F)c(N3C(=O)C4=C(CCCC4)C3=O)c2)c1=O" : what is it?
Completion: 0.0

* * *

Tested on: CASSIA OBTUSIFOLIA, L.
Procedure details: Postemergence herbicidal evaluation, CASOB (Sicklepod)
Assay type: in vivo
Experimental parameters: 0.250 kg/ha, rated four to five weeks after treatment
Quantity kind: Herbicide rating (0-9) CASOB
# respond with the number and nothing more

CC(C)OC(=O)Cn1c(=O)n(C)c(=O)n(-c2cc(N3C(=O)C4CSCCN4C3=O)c(F)cc2Cl)c1=O (centres unmarked); 9.0

Prompt: Reported Herbicide rating (0-9) CASOB for CC(C)OC(=O)Cn1c(=O)n(C)c(=O)n(-c2cc(N3C(=O)C4C[S+]([O-])CCN4C3=O)c(F)cc2Cl)c1=O (centres unmarked) : what is it?
Completion: 5.0

Prompt: Now give it for "CCOC(=O)Cn1c(=O)[nH]c(=O)n(-c2ccc(F)c(N3C(=O)C4=C(CCCC4)C3=O)c2)c1=O" too.
Completion: 0.0

Prompt: Now give it for "COC(=O)Cn1c(=O)n(C)c(=O)n(-c2cc(N3C(=O)C4=C(CCCC4)C3=O)ccc2F)c1=O" too.
Completion: 0.0

Prompt: Now give it for "CCOC(=O)Cn1c(=O)n(CC(=O)OC(C)(C)C)c(=O)n(-c2ccc(F)c(N3C(=O)C4=C(CCCC4)C3=O)c2)c1=O" too.
Completion: 0.0

* * *

Entries annotated with measured Herbicide rating (0-9) IPOSS
Tested on: IPOMOEA SPP.
Procedure details: Preemergence herbicidal evaluation, IPOSS (Morningglory Spp.)
Format: in vivo
Experimental parameters: 0.125 kg/ha, rated four to five weeks after treatment
# respond with the number and nothing more

Past entries and their recorded results:
COC(=O)Cn1c(=O)n(C)c(=O)n(-c2cc(N3C(=O)C4=C(CCCC4)C3=O)c(F)cc2F)c1=O [Compound 10]; 0.0
COC(=O)Cn1c(=O)n(C)c(=O)n(-c2cc(N3C(=O)C4=C(CCCC4)C3=O)ccc2F)c1=O [Compound 5]; 0.0
Cn1c(=O)n(CC(=O)OC(C)(C)C)c(=O)n(-c2cc(N3C(=O)C4=C(CCCC4)C3=O)c(F)cc2Cl)c1=O [Compound 2]; 6.0

# evaluate next
Prompt: Reported Herbicide rating (0-9) IPOSS for CC(C)OC(=O)Cn1c(=O)n(C)c(=O)n(-c2cc(N3C(=O)c4cccc(F)c4C3=O)c(F)cc2Cl)c1=O [Compound 11] : what is it?
Completion: 0.0

* * *

Test system: GALIUM APARINE
Procedure details: Preemergence herbicidal evaluation, GALAP (Galium)
Assay type: in vivo
Experimental parameters: 0.500 kg/ha, rated four to five weeks after treatment
Quantity kind: Herbicide rating (0-9) GALAP
# respond with the number and nothing more

CCOC(=O)Cn1c(=O)n(CC(=O)OC(C)(C)C)c(=O)n(-c2ccc(F)c(N3C(=O)C4=C(CCCC4)C3=O)c2)c1=O; 0.0
COC(=O)Cn1c(=O)n(C)c(=O)n(-c2cc(N3C(=O)C4=C(CCCC4)C3=O)ccc2F)c1=O; 0.0
CC(C)OC(=O)Cn1c(=O)n(C)c(=O)n(-c2cc(N3C(=O)C4=C(CCCC4)C3=O)c(F)cc2Cl)c1=O; 9.0
COC(=O)Cn1c(=O)n(C)c(=O)n(-c2cc(N3C(=O)C4=C(CCCC4)C3=O)c(F)cc2Cl)c1=O; 0.0

Prompt: Reported Herbicide rating (0-9) GALAP for "CCOC(=O)Cn1c(=O)[nH]c(=O)n(-c2ccc(F)c(N3C(=O)C4=C(CCCC4)C3=O)c2)c1=O" : what is it?
Completion: 0.0

All figures here come from patent EP0745599A2.
